Test system: PfAP2-LT AP2 domain (GST-tagged)
Test: gcPBM binding intensity (ln(normalized median fluorescence intensity)); higher = stronger DNA binding
Whole data set: some 25,000 sequences, median “ln(normalized median fluorescence intensity)” near 8.9, cut for the highest 2% near 10. The full list was thinned out, with the highest values kept by preference.
readout_name: gcPBM binding intensity (ln)
Answers are plain numbers.

Notebook: pull reported gcPBM binding intensity (ln) for PfAP2-LT AP2 domain (GST-tagged), entry AACACATACAAACACACACACAAAAAAAAAAAAAAA [CACACA_site393] 9.65

For AAGGATCACGCACAAACACACATATTTATATTTATA [CACACA_site6405] then? 9.14

What do we get for TATAATATAAGGATCACACACAAACAGACATATATA [CACACA_site557] ? 9.49

Another sequence to check: AATTAGCTCAAAGGTTGTACAAATATATTTTAATGG [XGTACX_site2352] 8.66

Please do the same for TATTTATTTAAAGGCACACATATTTTTATACTTTCT [CACACA_site3163] as well. 8.79

Please give gcPBM binding intensity (ln) for each item listed below.
1. CTTACATATTACATATGTACATATACACCTTATGTC [XGTACX_site4679]
2. TATACACACAGACATGCATGCACATATATATATACA [TGCATGCA_site30]
3. TTCAACGTTTTGGAATGTACAGAAAGGTATCCATCA [XGTACX_site179]

1: 9.19; 2: 9.54; 3: 8.62

The following sequences each have a reported value; give each one's gcPBM binding intensity (ln).
1. AACCACATACATATAACACACATATACAATATATAT [CACACA_site8607]
2. TTTTACACTTTTTTTTGTACACACTAAAAAGATTAA [XGTACX_site8407]

[9.29, 8.59]

Lab note: each sequence below needs its gcPBM binding intensity (ln) filled in.
1. TAAATAAAAAGACACACACACATATTTATATTTATA [CACACA_site7135]
2. TTTTTATCTTTGCTGTGTACATAAATAAAAATAACT [XGTACX_site7625]
3. TATGAAGACACAAATACACACACTCAAAAAAAAAAA [CACACA_site2660]
4. GGAAATTAACAGAACACAATGTAACAATTTCTAACA [CACACA_negctrl_site1250]
5. TAAAAGGAGACATATACACACATATATATATATATA [CACACA_site5539]

[9.7, 8.47, 9.41, 8.85, 10]
